Test system: HOP-18
Assay: NCI tumour cell line growth inhibition, 48 h
Activity calls are given as the source filed them. Cut-off read from the data, not from the text of the source: active = GI50 up to about 1.1 µM and inactive = higher.
Quantity: GI50

[
  {
    "Compound": "Cc1ccc(C2(O)CC(c3ccc([N+](=O)[O-])o3)=NN2C(=O)COc2ccc(Cl)cc2)cc1 (centres undefined)",
    "Observed Measurement": "20.9 µM (inactive)"
  },
  {
    "Compound": "CSc1nc(-c2ccccc2)c2c(n1)-c1ccccc1CC2",
    "Observed Measurement": "> 100 µM (inactive)"
  },
  {
    "Compound": "CCOC(=O)NC(=O)c1cn(CCCOC(=O)NCCCCCCNC(=O)OCCCn2cc(C(=O)NC(=O)OCC)c(=O)[nH]c2=O)c(=O)[nH]c1=O",
    "Observed Measurement": "82.8 µM (inactive)"
  },
  {
    "Compound": "CCOc1ccc(N2C(=O)/C(=C/c3ccc(N(CCC#N)CCC#N)cc3)N=C2c2cc([N+](=O)[O-])ccc2Cl)cc1",
    "Observed Measurement": "> 100 µM (inactive)"
  }
]

Measured values drawn from ChEMBL document CHEMBL1201862 for this set.
